Test system: CCRF-CEM
Assay: Inhibitory activity against growth of CCRF-CEM human leukemia cells. value mentioned is from literature
Assay type: functional
Settings: read-out: ED50
pEC50: −log10 of the molar value.

compound	pEC50
CN(Cc1cnc2nc(N)nc(N)c2n1)c1ccc(C(=O)NC(CCCN)C(=O)O)cc1 (stereo unspecified)	6.13

====

Biological target: Dihydrofolate reductase (Homo sapiens, UniProt P00374)
Sequence (P00374 whole entry): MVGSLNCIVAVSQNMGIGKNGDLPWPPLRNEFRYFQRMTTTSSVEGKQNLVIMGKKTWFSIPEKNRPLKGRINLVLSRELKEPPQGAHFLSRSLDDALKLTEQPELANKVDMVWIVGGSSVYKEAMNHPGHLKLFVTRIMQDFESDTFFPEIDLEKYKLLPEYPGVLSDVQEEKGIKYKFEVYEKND
Assay: Inhibitory concentration against dihydrofolate reductase enzyme (DHFR) enzyme isolated from CCRF-CEM human leukemia cells. value mentioned is from literature

compound	unit.name	IC50
CN(Cc1cnc2nc(N)nc(N)c2n1)c1ccc(C(=O)NC(CCCN)C(=O)O)cc1 (stereo unspecified)	nM	1
